// reported binding signal for each item listed
- system-under-test: OsWRKY34 (Oryza sativa, UniProt Q0JBA9 1-250)
- Sequence (Q0JBA9 entry or part of it): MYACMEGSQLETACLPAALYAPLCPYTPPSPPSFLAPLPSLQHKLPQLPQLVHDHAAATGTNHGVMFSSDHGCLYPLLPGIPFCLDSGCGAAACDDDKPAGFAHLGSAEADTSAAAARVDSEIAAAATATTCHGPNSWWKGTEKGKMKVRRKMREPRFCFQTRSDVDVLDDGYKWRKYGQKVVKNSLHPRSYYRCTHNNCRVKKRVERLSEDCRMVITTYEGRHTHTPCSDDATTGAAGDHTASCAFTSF
- assay-info: protein-binding microarray (RPBM); PBS, 2% BSA, 51.3 ng/ul salmon testes DNA, 50 uM zinc acetate, 200 nM TF, 25 C, 1 h; high values mean tight binding
- settings: protein: recombinant; tags: N-terminal polyhistidine and DsRed monomer fusion (pET32a); label: CyDye5-dUTP incorporated in the synthesized complementary strand; 3' TTTTT single-stranded linker to array surface; dsDNA, one strand shown
The full ranking holds about 68,000 sequences; the median of “fluorescence intensity (a.u.)” is about 9,100, and the highest 2% start at about 16,000. The sample as a whole holds a higher share of the highest values than the screen did.

seq-string: GCGGCGGGGTTCCTATCCATGGTTTTTTCGGGCTTGTCCACGGAGTCACCTAGTGCAG
result-type: binding signal
experimental-result: 18900 fluorescence intensity (a.u.)
//
seq-string: ACGCTGCCGTCTCATTTCGCTTTCGTAGAACTTGCTCCAGCGGAGTCACCTAGTGCAG
result-type: binding signal
experimental-result: 8500 fluorescence intensity (a.u.)
//
seq-string: GCTGTCGTTGAATTTTTGTTTGTTTTCTTGGCGTGTTGCACGGAGTCACCTAGTGCAG
result-type: binding signal
experimental-result: 13300 fluorescence intensity (a.u.)

Asked: Identify the reported binding signal for the following entry. "ATTGGGGCGGCGGTGGCGGGCTAGGGTTTCGTAGATTCGACGGAGTCACCTAGTGCAG"
Given back: 9960 fluorescence intensity (a.u.)

Asked: Look up and report measured binding signal for this entry: "GTCCGCTGCTTTTCTCCCTTGTCGGTTATTTTACCTCTTCCGGAGTCACCTAGTGCAG"
Given back: 18900 fluorescence intensity (a.u.)

Origin of the recorded values: paper PMC7819943
